Would you mind telling me the reported Z Repl 2 of each entry?
# target_desc: tau (Homo sapiens, UniProt P10636)
# Sequence (P10636 623-695 limits assumed): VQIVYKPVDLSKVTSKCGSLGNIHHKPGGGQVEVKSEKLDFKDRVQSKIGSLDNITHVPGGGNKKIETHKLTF
# test_protocol: MCE Phenols Library screening, tau biosensor cell seeding assay (AvZ)
# Type: cell-based
# reported_conditions: Z score, replicate 2
When you answer, write just the number.

Reported Z Repl 2, compound "COc1cc(C(=O)O)cc(OC)c1O" : ____ 0.027

What Z Repl 2 value was documented for this compound, "COc1cc(O)c2c(=O)c(-c3ccc(O)cc3)coc2c1" ? 2.297

Param item = O=C(O)[C@H]1O[C@@H](Oc2c(-c3ccc(O)cc3)oc3cc(O)cc(O)c3c2=O)[C@H](O)[C@@H](O)[C@@H]1O [Kaempferol 3-O-?-D-glucuronide] ; retrieve measured Z Repl 2. 0.597

If you can, please state the reported Z Repl 2 value of "C[C@H]1CCCC(=O)CCC/C=C/c2cc(O)cc(O)c2C(=O)O1" . 0.423

Consider the compound "COc1ccc(/C=C/c2cc(O)cc(O)c2)cc1" and give its measured Z Repl 2. 0.599

Look at this compound and give its reported Z Repl 2. Cc1cc(O)c2c(c1)C(=O)c1cc(O)cc(O[C@@H]3O[C@H](CO)[C@@H](O)[C@H](O)[C@H]3O)c1C2=O [Emodin-8-glucoside] -0.367

State the recorded Z Repl 2 for this entry: COc1cc(CNC(=O)CCCC/C=C/C(C)C)ccc1O [Capsaicin, reference compound] -0.661

What measured Z Repl 2 goes with "CC(C)=CCC[C@]1(C)C=Cc2c(O)c3c(c(CC=C(C)C)c2O1)O[C@]12C(=C[C@@H]4C[C@H]1C(C)(C)O[C@@]2(C/C=C(/C)C(=O)O)C4=O)C3=O" ? -0.952

What value of Z Repl 2 has been reported for the following compound? COc1cc(/C=C/COC(=O)/C=C/c2ccc(O)c(OC)c2)ccc1O [Coniferyl ferulate] -0.434

Any idea what Z Repl 2 was measured for "COc1c(O)c(C)cc2c1C(=O)c1c(O)cccc1C2=O" ? 0.069

====

# target_desc: UniProt:P10636
# test_protocol: MCE Phenols Library screening, tau biosensor cell seeding assay (AvZ)
# Format: cell-based
# reported_conditions: Z score, replicate 1
measured_quantity: Z repl 1

I have this compound here, Oc1cc(O)c2c(c1)O[C@@H](c1cc(O)c(O)c(O)c1)[C@H](O)C2 [(-)-Gallocatechin] , and I need its recorded Z repl 1. -1.316

For the compound shown here, "O=Cc1ccc(O)c(O)c1" , give the reported Z repl 1. -0.894

What value of Z repl 1 has been reported for the following compound? "COc1ccc(-c2coc3cc(O)ccc3c2=O)cc1O" 0.387

Which measured Z repl 1 value corresponds to "C[C@]12CC[C@@H]3c4ccc(O)cc4CC[C@H]3[C@@H]1C[C@@H](O)[C@@H]2O" ? 0.006

Report Z repl 1 for "COc1cc(O)c(C(=O)/C=C/c2ccccc2)c(OC)c1" please. -0.296

Param item = "O=C1C[C@@H](c2ccc(O)c(O)c2)Oc2cc(O)cc(O)c21" ; retrieve measured Z repl 1. -0.756

I am curious: what Z repl 1 value has been reported for COc1ccc2c(c1)OC[C@@H](c1cc(O)c(OC)c(OC)c1O)C2 [Colutehydroquinone] ? 0.366

Which Z repl 1 value belongs to "COc1ccc(-c2cc(=O)c3c(O)cc(OC)cc3o2)cc1" ? 0.072

Would you mind telling me what Z repl 1 value was observed for O=C1CC(C(=O)O)c2c1oc(=O)c1cc(O)c(O)c(O)c21 (stereo not shown) ? -1.001

Return reported Z repl 1; argument: "C[C@H]1CCCC(=O)CCC/C=C/c2cc(O)cc(O)c2C(=O)O1" -0.335

State the recorded Z repl 1 for this entry: "CC1(C)C=Cc2c(ccc3c2OC[C@@H](c2ccc(O)cc2O)C3)O1" 0.624

I am curious: what Z repl 1 value has been reported for "COc1cc2oc(-c3ccccc3)cc(=O)c2c(O)c1O" ? -1.009

Given "O=C(O)[C@H]1O[C@@H](Oc2cc3oc(-c4ccc(O)cc4)cc(=O)c3c(O)c2O)[C@H](O)[C@@H](O)[C@@H]1O" , state its recorded Z repl 1. -1.927

Requested read-out: Z repl 1. Entry: CC(=O)OCCc1ccc(O)c(O)c1 [Hydroxytyrosol acetate] -0.003

Please look up its Z repl 1: "O=c1cc(-c2ccccc2)oc2c(O)c(O)cc(O)c12" -0.966

If you can, please state the reported Z repl 1 value of "O=C(/C=C/c1ccc(O)cc1)c1ccc(O)cc1O" . 0.483

I have this compound here, O=c1cc(-c2ccc(O)cc2)oc2c([C@@H]3O[C@H](CO)[C@@H](O)[C@H](O)[C@H]3O)c(O)c([C@@H]3OC[C@H](O)[C@H](O)[C@H]3O)c(O)c12 [Isoschaftoside] , and I need its recorded Z repl 1. -0.121

Record request: Z repl 1 value, item O=C(O)CC(O)(CC(=O)OCc1ccc(O[C@@H]2O[C@H](CO)[C@@H](O)[C@H](O)[C@H]2O)cc1)C(=O)OCc1ccc(O[C@@H]2O[C@H](CO)[C@@H](O)[C@H](O)[C@H]2O)cc1 (stereo partly shown) 0.462

Would you mind telling me what Z repl 1 value was observed for COc1c2ccoc2c(O)c2oc(=O)ccc12 [8-Hydroxybergapten] ? -0.103

Consider the compound OCCc1ccc(O)c(O)c1 [Hydroxytyrosol] and give its measured Z repl 1. -0.11

Please give the measured Z repl 1 for this compound: Cc1c(C)c2c(c(C)c1O)CCC(C)(CCCC(C)CCCC(C)CCCC(C)C)O2 (racemic) -0.849

State the recorded Z repl 1 for this entry: "CC(C)=CCc1cc2c(=O)cc(-c3ccc(O)cc3)oc2cc1O" 1.035

Would you kindly share the measured Z repl 1 for COc1cc(CCC(O)CC(O)CCc2ccc(O)c(OC)c2)ccc1O (stereo not shown) [Octahydrocurcumin] ? -0.643

Entry "O=C(/C=C/c1ccc(O)c(O)c1)O[C@@H](C(=O)O)[C@@H](O)C(=O)O" has what Z repl 1? -0.317

Z repl 1 lookup needed for COc1cc(/C=C/C(=O)OCC2OC(OC3(CO)OC(CO)C(O)C3OC(=O)/C=C/c3cc(OC)c(O)c(OC)c3)C(O)C(O)C2O)cc(OC)c1O (stereo not shown) [(E)-3',6-Disinapoylsucrose] , thanks. 0.224

Requested field: Z repl 1. Item: "COc1ccc(-c2oc3c(CCC(C)(C)O)c(O)cc(O)c3c(=O)c2O)cc1" -0.889

Quick check: Z repl 1 of Oc1cc(O)c2c(c1)O[C@H](c1cc(O)c(O)c(O)c1)[C@H](O)C2 [(-)-Epigallocatechin] ? -0.424

// Z repl 1 lookup, key: "COc1cc2c(cc1O)CC[n+]1cc3c4c(ccc3cc1-2)OCO4" 0.553

All values here come from paper PMC11784839.
